Entries and their fold decrease in IC50 (relative to humanized parent scFV)
target: T1, recombinant human FcRn (Sino Biological Inc. Cat. No. CT009-H08H) (human, UniProt P55899 24-290; P61769 21-119); test: scFv competition ELISA vs biotinylated parent murine antibody, captured FcRn, pH 6
T1 construct: Bought protein; also called hFcRn (SINO); immobilized FcRn
T1 sequence (P55899 24-290 limits assumed, chain 1 of 2): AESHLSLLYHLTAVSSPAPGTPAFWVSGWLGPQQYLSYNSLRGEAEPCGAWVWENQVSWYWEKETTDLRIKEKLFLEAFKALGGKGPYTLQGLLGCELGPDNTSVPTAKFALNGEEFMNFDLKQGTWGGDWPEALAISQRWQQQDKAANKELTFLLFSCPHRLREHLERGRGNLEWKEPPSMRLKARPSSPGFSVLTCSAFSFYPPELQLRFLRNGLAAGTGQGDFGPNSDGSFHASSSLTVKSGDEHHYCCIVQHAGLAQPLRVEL
T1 sequence (P61769 21-119 limits assumed, chain 2 of 2): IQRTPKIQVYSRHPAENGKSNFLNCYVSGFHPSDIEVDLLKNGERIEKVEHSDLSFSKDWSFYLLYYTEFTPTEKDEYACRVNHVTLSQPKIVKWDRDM
metric.name: fold decrease in IC50 (relative to humanized parent scFV)

- H1 VH1 scFv with humanized parental Vκ1 (scFv, from bacterial periplasmic extracts) scFv: QVQLVQSGAELKKPGASVKLSCKASGYTFTSYGISWVKQATGQGLEWIGEIYPRSGNTYYNEKFKGRATLTADKSTSTAYMELRSLRSEDSAVYFCARSTTVSPPPLWGTGTTVTVSSGGGGSGGGGSGGGGSDIQMTQSPSYLSASVGDRVTITCKASDHINNWLAWYQQKPGQAPRLLISGATSLETGVPSRFSGSGTGKDYTLTISSLQTEDFATYYCQQYWSTPYTFGGGTKVEIK: 17.1 fold
- G7 VH1 scFv with humanized parental Vκ1 (scFv) scFv: QVQLVQSGAELKKPGASVKLSCKASGYTFTSYGISWVKQATGQGLEWIGEIYPRSGNTYYNEKFKGRATLTADKSTSTAYMELRSLRSEDSAVYFCARSTTVAPPGHWGTGTTVTVSSGGGGSGGGGSGGGGSDIQMTQSPSYLSASVGDRVTITCKASDHINNWLAWYQQKPGQAPRLLISGATSLETGVPSRFSGSGTGKDYTLTISSLQTEDFATYYCQQYWSTPYTFGGGTKVEIK: 17.7 fold
- A7 VH1 scFv with humanized parental Vκ1 (scFv) scFv: QVQLVQSGAELKKPGASVKLSCKASGYTFTSYGISWVKQATGQGLEWIGEIYPRSGNTYYNEKFKGRATLTADKSTSTAYMELRSLRSEDSAVYFCARSTTVSPPPIWGTGTTVTVSSGGGGSGGGGSGGGGSDIQMTQSPSYLSASVGDRVTITCKASDHINNWLAWYQQKPGQAPRLLISGATSLETGVPSRFSGSGTGKDYTLTISSLQTEDFATYYCQQYWSTPYTFGGGTKVEIK: 17 fold
- F7 VH1 scFv with humanized parental Vκ1 (scFv) scFv: QVQLVQSGAELKKPGASVKLSCKASGYTFTSYGISWVKQATGQGLEWIGEIYPRSGNTYYNEKFKGRATLTADKSTSTAYMELRSLRSEDSAVYFCARSTTVAPPPLWGTGTTVTVSSGGGGSGGGGSGGGGSDIQMTQSPSYLSASVGDRVTITCKASDHINNWLAWYQQKPGQAPRLLISGATSLETGVPSRFSGSGTGKDYTLTISSLQTEDFATYYCQQYWSTPYTFGGGTKVEIK: 16.4 fold
- G4 VH1 scFv with humanized parental Vκ1 (scFv) scFv: QVQLVQSGAELKKPGASVKLSCKASGYTFTSYGISWVKQATGQGLEWIGEIYPRSGNTYYNEKFKGRATLTADKSTSTAYMELRSLRSEDSAVYFCARSTTVSPPHLWGTGTTVTVSSGGGGSGGGGSGGGGSDIQMTQSPSYLSASVGDRVTITCKASDHINNWLAWYQQKPGQAPRLLISGATSLETGVPSRFSGSGTGKDYTLTISSLQTEDFATYYCQQYWSTPYTFGGGTKVEIK: 18.9 fold
